// provenance: patent US11130741B2

Tested on: E. coli RNase P RNA, M1 RNA
protocolNotes: Inhibition of bacterial RNase P activity, IC50 determination (cleavage of pATSerUG by M1 RNA)
Format: biochemical
testSettings: NI = No inhibition
Counter-ions that a name gives are not always drawn.
Okay, here is how we bin by IC50: one: < 40 µM; two: ≥ 40 µM and < 70 µM; three: ≥ 70 µM

* NCCN1CC(C(=O)Nc2cc(C(F)(F)F)cc3c2Nc2ccccc2S3)C1 | three
* O=C(Nc1cc(C(F)(F)F)cc2c1Nc1ccccc1S2)[C@@H]1CCCNC1 | three
* Cl.Cl.NC1CCCC(C(=O)Nc2cc(C(F)(F)F)cc3c2Nc2ccc(Br)cc2S3)C1 (stereo not shown) [compound 312, hydrochloride] | one
* N[C@H]1CCC[C@@H](CNc2cc(C(F)(F)F)cc3c2Nc2ccccc2S3)C1 | two
* C=CC(=O)N(CCCN(C)C)c1cc(C(F)(F)F)cc2c1Nc1ccccc1S2 | three
* NC[C@H]1CC[C@H](C(=O)Nc2cc(C(F)(F)F)cc3c2Nc2ccccc2O3)CC1 | two
* NCCN1CCC(Nc2cc(C(F)(F)F)cc3c2Nc2ccccc2O3)CC1 | three
* Cl.Cl.NCCN1CCC(Nc2cc(C(F)(F)F)cc3c2Nc2ccc(C(=O)N4CCCC4)cc2S3)CC1 [compound 293, hydrochloride] | two

Entry `CN(C)CCCN1c2ccccc2Sc2cc(-c3ccnc(F)c3)ccc21` belongs to which category?
three

Each molecule maps to one class by IC50. Which class for NCCCN1c2ccc(N3CCN(CCN)CC3)cc2Sc2cc(C(F)(F)F)ccc21 [compound 266, hydrochloride] ?
one

----------
A collection of compounds and their measured IC50
System: E. coli RNase P RNA, M1 RNA
protocolNotes: Inhibition of bacterial RNase P activity, IC50 determination (cleavage of pATSerUG by M1 RNA)
Assay type: biochemical
testSettings: NI = No inhibition
Report the figure in µM without appending any unit label.

- FC(F)(F)c1cc(NCC2CCNCC2)c2c(c1)Sc1ccccc1N2 [compound 173]: 59

Find the recorded IC50 belonging to O=C(Nc1cc(C(F)(F)F)cc2c1Nc1ccccc1S2)C1CCNCC1 [compound 207] and report it.
109

Returns the measured IC50 for the input compound. Input: CC1CCCCN1c1ccc2c(c1)Sc1cc(C(F)(F)F)cc(NC3CCN(CCN)CC3)c1N2.Cl.Cl.Cl (stereo not drawn) [compound 314, hydrochloride]
30

Requested read-out: IC50. Entry: NCCN1CCC(C(=O)Nc2cc(C(F)(F)F)cc3c2Nc2ccccc2S3)CC1 [compound 199]
65

Need IC50, item NCCCN1c2ccc(-c3cc4ccccc4[nH]3)cc2Sc2cc(N3CCNCC3)ccc21.O=C(O)C(F)(F)F [compound 244]
4

# lookup: IC50 of NC1CCCC(C(=O)Nc2cc(C(F)(F)F)cc3c2Nc2cc(F)ccc2S3)C1.O=C(O)C(F)(F)F (stereo not drawn) [compound 124, TFA Salt]
59

If you can, please state the reported IC50 value of CC1CC(C)CN(c2ccc3c(c2)Sc2cc(C(F)(F)F)cc(NC4CCN(CCN)CC4)c2N3)C1.Cl.Cl.Cl (stereo not drawn) [compound 274, hydrochloride] .
24

Quick one: IC50 of NCCN1CCC(Nc2cc(C(F)(F)F)cc3c2Nc2ncccc2S3)CC1 [compound 268] ?
31

Give its IC50 value. Item: NCCCN1c2ccccc2Sc2cc(-c3cc4ccccc4[nH]3)ccc21 [compound 150]
14

----------
Parameter IC50: see the listing below.
Tested on: E. coli RNase P RNA, M1 RNA
protocolNotes: Inhibition of bacterial RNase P activity, IC50 determination (cleavage of pATSerUG by M1 RNA)
Format: biochemical
testSettings: NI = No inhibition
Number in µM, nothing else.

- CN(C)CCCN1c2ccccc2Sc2cc(-c3ccc4scnc4c3)ccc21 [compound 130]: 57

Requested read-out: IC50. Entry: NCCN1CCC(Nc2cc(C(F)(F)F)cc3c2Nc2ccc(CN)cc2S3)CC1.O=C(O)C(F)(F)F.O=C(O)C(F)(F)F [compound 227, bis(2,2,2-trifluoroacetate)]
7

----------
Tested on: Escherichia coli (ATCC25922)
protocolNotes: MIC, broth microdilution (CLSI), Escherichia coli ATCC25922
testSettings: ATCC25922, read-out: E. coli MIC, Table 15, NI = No inhibition
measuredParameter: MIC (µg/mL)
The reply should be a number in µg/mL, with the unit left off.

The following compounds have reported results that may help.
* CNCCCN1c2ccccc2Sc2cc(-c3cc4ccccc4[nH]3)ccc21 [compound 186] | 99
* CC1CN(c2ccc3c(c2)Sc2cc(Br)ccc2N3CCCN)CC(C)O1.Cl (centres unmarked) [compound 279] | 128
* Cl.NCCN1CCC(Nc2cc(C(F)(F)F)cc3c2Nc2ccc(N4CC5(CCC5)C4)cc2S3)CC1 [compound 325] | 8
* Cl.NCCN1CCC(Nc2cc(C(F)(F)F)cc3c2Nc2cc(N4CCCC4)ccc2S3)CC1 [compound 356] | 32

Shifting focus to the compound that follows.
Reported MIC, compound Cl.Cl.Cl.NCCCN1c2ccc(Br)cc2Sc2cc(N3CCN(CCN)CC3)ccc21 [compound 278] : ____
128

----------
// pIC50 lookup, one value per entry
Test system: E. coli RNase P RNA, M1 RNA
protocolNotes: Inhibition of bacterial RNase P activity, IC50 determination (cleavage of pATSerUG by M1 RNA)
Type: biochemical
testSettings: NI = No inhibition
Please keep in mind that pIC50 is minus log10 of the molar concentration; only the number is needed.

See these solved cases before continuing.
- FC(F)(F)c1cc(NC2CCNCC2)c2c(c1)Oc1ccccc1N2: 4.44
- NCCN1CCC(c2nc3cc(C(F)(F)F)cc4c3n2-c2ccccc2S4)CC1: 4.77
- Cl.NCCNCCCNc1cc(C(F)(F)F)cc2c1Nc1ccc(Br)cc1S2: 4.85
- CC(C)NCCCN1c2ccccc2Sc2cc(-c3cc4ccccc4[nH]3)ccc21: 4.60
- NC1CCCC(CNc2cc(C(F)(F)F)cc3c2Nc2ccccc2S3)C1 (stereo not drawn): 4.72
- NC1CCCC(c2nc3cc(C(F)(F)F)cc4c3n2-c2ccccc2S4)C1 (stereo not drawn): 4.72
- NCC1CCC(CNc2cc(C(F)(F)F)cc3c2Nc2ccccc2S3)CC1 (stereo not drawn): 4.28
- FC(F)(F)c1cc(NC2CCNCC2)c2c(c1)Sc1ccccc1N2: 4.92

Name the recorded pIC50 for NNC(=O)c1cc(NC2CCNCC2)c2c(c1)Sc1ccccc1N2.O=C(O)C(F)(F)F [compound 210, trifluoroacetate salt] .
4.02

Can you share its pIC50? I mean this compound: NC1CCC(Nc2cc(C(F)(F)F)cc3c2Nc2ccccc2S3)CC1 (stereo not drawn)
4.06

Suppose we examine the compound NCCN1CCCC(C(=O)Nc2cc(C(F)(F)F)cc3c2Nc2ccccc2S3)C1 (stereo not drawn) ; what pIC50 value has been reported?
5.40

Endpoint output: pIC50 of NC1CCC(C(=O)Nc2cc(C(F)(F)F)cc3c2Nc2ccccc2S3)CC1 (stereo not drawn) . Value?
4.03

----------
Test system: Escherichia coli (ATCC25922)
protocolNotes: MIC, broth microdilution (CLSI), Escherichia coli ATCC25922
testSettings: ATCC25922, read-out: E. coli MIC, Table 15, NI = No inhibition
# reported MIC; entries follow
Give the number; µg/mL is assumed, so skip it.

* Cl.Cl.NCCN(CCN)CCN1CCC(Nc2cc(C(F)(F)F)cc3c2Nc2ccc(Br)cc2S3)CC1 | 8

Proceed to the following item.
Given the compound `FC(F)(F)c1cc2c3c(c1)nc(C1CCNCC1)n3-c1ccccc1S2` , what is its reported MIC?
24

----------
System: E. coli RNase P RNA, M1 RNA
protocolNotes: Inhibition of bacterial RNase P activity, IC50 determination (cleavage of pATSerUG by M1 RNA)
Type: biochemical
testSettings: NI = No inhibition
Let's look at some compounds and their measured IC50.
Give just the number in µM; leave the unit off.

* CN(C)CCCN1c2ccccc2Sc2cc(-c3cc4ccccc4n3CCN)ccc21 | 37
* NC1CC(N)CC(C(=O)Nc2cc(C(F)(F)F)cc3c2Nc2ccccc2S3)C1 (centres unmarked) | 59
* N#Cc1ccc2c(c1)Sc1cc(N3CCN(CCN)CC3)ccc1N2CCCN | 140
* CC1CCN(c2ccc3c(c2)Sc2cc(C(F)(F)F)cc(NC4CCN(CCN)CC4)c2N3)C1.Cl.Cl (centres unmarked) [compound 311, hydrochloride] | 2.5
* CC1(C)CCCN(c2ccc3c(c2)Sc2cc(C(F)(F)F)cc(NC4CCN(CCN)CC4)c2N3)C1.Cl.Cl [compound 305, hydrochloride] | 2.9

Form field: reported IC50 of Cl.NCCN1CCC(Nc2cc(C(F)(F)F)cc3c2Nc2ccc(N4CC5(CCC5)C4)cc2S3)CC1 [compound 325, hydrochloride]
6.4

Which IC50 value is on record for FC(F)(F)c1cc(NC2CCCNC2)c2c(c1)Sc1ccccc1N2 (centres unmarked) ?
27

Given the entry NC1CCCC(C(=O)Nc2cc(C(F)(F)F)cc3c2Nc2ccccc2S3)C1 (centres unmarked) , report its measured IC50.
15

GET /values?readout=IC50&item= `FC(F)(F)c1cc(NC2CCNCC2)c2c(c1)Sc1cc(Cl)ccc1N2`
24
